Data credit: the RNAGym collection of RNA variant scans (doi:10.1073/pnas.2313332121)

The entries below are paired with their reported polymerase ribozyme fitness (log ratio).
B1: TPR 5TU (parent)
chain: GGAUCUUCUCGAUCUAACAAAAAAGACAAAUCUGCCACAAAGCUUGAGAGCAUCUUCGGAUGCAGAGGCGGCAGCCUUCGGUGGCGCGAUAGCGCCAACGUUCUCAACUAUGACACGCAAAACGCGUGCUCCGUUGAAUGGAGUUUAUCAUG

Variants of: B1
Assay: polymerase ribozyme fitness, log enrichment relative to wild type (log ratio); higher = more active; in vitro selection for triplet polymerase activity
This sample holds only a part of the variants without activity.

Study these solved cases before continuing.
Entry under review: G50C G71U A97U . Reported polymerase ribozyme fitness (log ratio)?
≤ -4.2

Value lookup for polymerase ribozyme fitness (log ratio); key = C57G A73G C87G A98U C125G G141A
≤ -4.2

Dear colleague, I am looking for the recorded polymerase ribozyme fitness (log ratio) of the following variant: A49U U55G G58A C123A G126U U148A
≤ -4.2

I am curious: what polymerase ribozyme fitness (log ratio) value has been reported for A66U G94A G100U U148G ?
≤ -4.2

Returns the measured polymerase ribozyme fitness (log ratio) for the input variant. Input: A23U C93A U135C
≤ -4.2

Return reported polymerase ribozyme fitness (log ratio); argument: A47G G68A C72U G81A A89G U148A
≤ -4.2

Entry U9G A29G C85U A121U G128U has what polymerase ribozyme fitness (log ratio)?
≤ -4.2

For the variant shown here, A19U A28G G50A G68A G94U , give the reported polymerase ribozyme fitness (log ratio).
≤ -4.2

Give its polymerase ribozyme fitness (log ratio) value. Item: C54G A73G C79A U82G C87U A122U G141C
≤ -4.2

Look at this variant and give its reported polymerase ribozyme fitness (log ratio). A29U G59U C93U
≤ -4.2

Please examine the following record next.
Please look up its polymerase ribozyme fitness (log ratio): U77A G94A G140A
≤ -4.2
